# Test system: Yellow Fever Mosquito "YFM" (Aedes aegypti)
# Assay type: in vivo
# Condition info: about 1 day-old larvae, 96-well plate, room temperature, 3 days, mortality
Measured attribute: YFM % Control (or Mortality) rating

• Cc1cccc(C)c1N1C(=O)CS/C1=N\C(=O)NCCCCc1ccc(-c2ncn(-c3ccc(OC(F)(F)F)cc3)n2)cc1 [P152, P1481] = A (80-100)
• CC(C)c1cccc(N2C(=O)CS/C2=N\C(=O)NCCc2ccc(-c3ncn(-c4ccc(OC(F)(F)F)cc4)n3)cc2)c1 [P51] = A (80-100)
• Cc1ccc(C(C)C)c(-n2c(C)cs/c2=N\C(=O)NCCc2ccc(-c3ncn(-c4ccc(OC(F)(F)F)cc4)n3)cc2)c1 [P65] = A (80-100)
• COc1ccc(N2C(=O)CS/C2=N\C(=O)NC(C)Cc2ccc(-c3ncn(-c4ccc(OC(F)(F)F)cc4)n3)cc2)c(C)c1 (stereo not drawn) [P45] = A (80-100)
• COc1cc(C)c(N2C(=O)CS/C2=N\C(=O)NCCc2ccc(-c3ncn(-c4ccc(OC(F)(F)F)cc4)n3)cc2)c(C)c1 [P47] = A (80-100)
